For each record, write down the corresponding Ki.
Assay: Inhibition of N-terminal His6-tagged HGXPRT expressed in Escherichia coli BL21 cells assessed as reduction in NADH absorbance using hypoxanthine as substrate by IMPDH coupled assay
Parameters: species or system Plasmodium falciparum

A selection of reference data follows.
INSERT INTO results (sample_smiles, value_observed) VALUES
  ('NS(=O)(=O)NC[C@@H](CO)NCc1c[nH]c2c(O)ncnc12', '> 20 µM'),
  ('O=c1[nH]cnc2c(CN[C@H](CO)CCP(=O)(O)O)c[nH]c12', '0.00065 µM'),
  ('O=P(O)(O)CC[C@@H](CO)NCc1c[nH]c2c(O)nc(O)nc12', '8 µM'),
  ('O=c1cc([C@@H](CO)NCc2c[nH]c3c(O)ncnc23)o[nH]1', '> 20 µM'),
  ('Nc1nc(O)c2[nH]cc(CN[C@H](CO)CCP(=O)(O)O)c2n1', '0.0005 µM'),
  ('O=C1CN(C[C@@H](CO)NCc2c[nH]c3c(O)ncnc23)S(=O)(=O)N1', '> 20 µM');

// input: 5 compounds below; output: Ki for each
1. O=C1CN(C[C@@H](CO)NCc2c[nH]c3c(O)nc(O)nc23)S(=O)(=O)N1
2. O=c1c(O)c(NC[C@@H](CO)NCc2c[nH]c3c(O)ncnc23)c1=O
3. O=c1c(O)c(NCC[C@@H](CO)NCc2c[nH]c3c(O)ncnc23)c1=O
4. O=C1CN(CC[C@@H](CO)NCc2c[nH]c3c(O)nc(O)nc23)S(=O)(=O)N1
5. NS(=O)(=O)NC[C@@H](CO)NCc1c[nH]c2c(O)nc(O)nc12

Response:
1: > 20 µM; 2: > 20 µM; 3: > 20 µM; 4: > 20 µM; 5: > 20 µM

Please go through the list and note Ki for each compound.
1. O=C1CN(CC[C@@H](CO)NCc2c[nH]c3c(O)ncnc23)S(=O)(=O)N1
2. O=C1N[C@@H]([C@@H](CO)NCc2c[nH]c3c(O)ncnc23)CO1

Response:
["> 20 µM", "> 20 µM"]
